target: DYRK1A (Homo sapiens, UniProt Q13627); construct: purchased Carna Biosciences, Inc. 04-130; assay: Inhibition test on activity of DYRK family, mobility shift assay (MSA): DYRK1A; assay type: biochemical; details: MSA, FITC-labeled DYRKtide peptide, ATP 100 μM; read-out: Inhibitory activity DYRK 1A (IC50 class)
pIC50: −log10 of the molar value.
Items are presented alongside their recorded pIC50.

// known answers, use as guide
O=C1N[C@H]2CCN(C3COC3)C[C@H]2N1c1nc2c3c(ccc2s1)OCO3 (racemic) [Example 81]    7.00 to 8.00
O=C1N[C@H]2CO[C@@H](CF)C[C@H]2N1c1nc2c3c(ccc2s1)OCC3 [Example 40]    > 8.00
O=C1C[C@@H]2[C@H](CO1)NC(=O)N2c1nc2c3c(ccc2s1)OCC3 [Example 152]    > 8.00
CCN1CC[C@H]2NC(=O)N(c3nc4c5c(ccc4s3)OCC5)[C@H]2C1 (relative stereo) [Example 11]    7.00 to 8.00

Pending molecule:
Recorded result, O=C1N[C@H]2CCCN(C3COC3)C[C@H]2N1c1nc2c3c(ccc2s1)OCC3 (racemic) [Example 73] , pIC50: > 8.00

---

This section presents compounds with their documented pIC50 values.
target: DYRK3 (Homo sapiens); construct: purchased Carna Biosciences, Inc. 04-133; test: Inhibition test on activity of DYRK family, mobility shift assay (MSA): DYRK3; type: biochemical; details: MSA, FITC-labeled DYRKtide peptide, ATP 20 μM; read-out: Inhibitory activity DYRK 3 (IC50 class)
Sequence (O43781 1-568 isoform O43781-2): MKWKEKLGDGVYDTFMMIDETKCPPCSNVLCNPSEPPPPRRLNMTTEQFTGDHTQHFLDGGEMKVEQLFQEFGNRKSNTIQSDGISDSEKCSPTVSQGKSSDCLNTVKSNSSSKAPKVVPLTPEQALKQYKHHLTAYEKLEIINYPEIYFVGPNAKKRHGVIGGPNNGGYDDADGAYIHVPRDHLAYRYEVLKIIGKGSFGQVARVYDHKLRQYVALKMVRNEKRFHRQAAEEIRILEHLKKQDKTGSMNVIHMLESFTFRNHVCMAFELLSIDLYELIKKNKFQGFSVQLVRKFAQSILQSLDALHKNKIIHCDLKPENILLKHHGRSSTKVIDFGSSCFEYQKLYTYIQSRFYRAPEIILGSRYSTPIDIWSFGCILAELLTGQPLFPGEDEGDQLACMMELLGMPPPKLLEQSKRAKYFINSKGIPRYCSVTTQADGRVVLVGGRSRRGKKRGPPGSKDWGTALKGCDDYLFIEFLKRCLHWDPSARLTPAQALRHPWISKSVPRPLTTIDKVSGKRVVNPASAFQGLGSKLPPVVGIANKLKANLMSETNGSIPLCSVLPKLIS
pIC50: −log10 of the molar value.

Known pIC50 results, listed for orientation:
O=C1NC2CNCCC2N1c1nc2c3c(ccc2s1)OCC3 (stereo not drawn) [Example 2]    7.00 to 8.00
CN1C[C@@H]2NC(=O)N(c3nc4c5c(ccc4s3)OCC5)[C@@H]2CC12CC2 [Example 89]    ≤ 6.00

Continue with the compound presented below.
Looking up O=C1N[C@H]2CCCN(C3COC3)C[C@H]2N1c1nc2c3c(ccc2s1)OCC3 (racemic) [Example 73] , I see its pIC50 listed as ≤ 6.00

---

Recorded IC50 values for a group of compounds are listed next.
molecular target: DYRK2 (Homo sapiens); construct: purchased Carna Biosciences, Inc. 04-132; test: Inhibition test on activity of DYRK family, mobility shift assay (MSA): DYRK2; type: biochemical; details: MSA, FITC-labeled DYRKtide peptide, ATP 40 μM; read-out: Inhibitory activity DYRK 2 (IC50 class)
Sequence (Q92630 74-601 limits assumed): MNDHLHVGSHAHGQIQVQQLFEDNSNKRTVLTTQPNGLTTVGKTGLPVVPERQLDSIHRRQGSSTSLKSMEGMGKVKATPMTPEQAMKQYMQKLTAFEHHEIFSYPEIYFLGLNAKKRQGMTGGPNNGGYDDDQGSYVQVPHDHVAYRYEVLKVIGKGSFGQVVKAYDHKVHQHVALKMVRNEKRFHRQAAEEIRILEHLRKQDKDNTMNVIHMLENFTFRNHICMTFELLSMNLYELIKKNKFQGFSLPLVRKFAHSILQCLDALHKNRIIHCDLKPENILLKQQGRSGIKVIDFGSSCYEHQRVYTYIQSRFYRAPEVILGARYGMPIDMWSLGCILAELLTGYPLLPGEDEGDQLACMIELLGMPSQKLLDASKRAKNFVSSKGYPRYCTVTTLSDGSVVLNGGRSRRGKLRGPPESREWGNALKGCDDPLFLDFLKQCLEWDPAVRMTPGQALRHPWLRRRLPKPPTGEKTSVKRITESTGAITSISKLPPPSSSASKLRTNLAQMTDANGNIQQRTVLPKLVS

Some entries whose results are on file:
CCN1CC[C@H]2NC(=O)N(c3nc4c5c(ccc4s3)OCC5)[C@H]2C1 (relative stereo)    ≥ 1000 nM
O=C1N[C@H]2CO[C@H](CO)[C@H]2N1c1nc2c3c(ccc2s1)OCC3    100 to 1000 nM
O=C1N[C@H]2CCCNC[C@H]2N1c1nc2c3c(ccc2s1)OCC3    ≥ 1000 nM
O=C1N[C@@H]2C[C@H](CO)OC[C@@H]2N1c1nc2c3c(ccc2s1)OCC3    ≥ 1000 nM
O=C1NC2CNCC2N1c1nc2c3c(ccc2s1)OCC3 (stereo not drawn)    ≥ 1000 nM
COCCN1CC[C@@H]2NC(=O)N(c3nc4c5c(ccc4s3)OCC5)[C@@H]2C1 (relative stereo)    ≥ 1000 nM

O=C1N[C@@H]2[C@@H](CO[C@@H]2CO)N1c1nc2c3c(ccc2s1)OCC3 yielded IC50 of 100 to 1000 nM

In plain terms, O=C1N[C@H]2CC3(CC3)NC[C@H]2N1c1nc2c3c(ccc2s1)OCC3 has a documented IC50 of ≥ 1000 nM

Recorded IC50 (compound CN1C[C@@H](F)[C@@H]2NC(=O)N(c3nc4c5c(ccc4s3)OCC5)[C@@H]2C1 ): ≥ 1000 nM
